biological target: rGPR39 (Rattus norvegicus); experiment: DMR label-free assay, HEK293s cells transfected with rat GPR39; assay type: cell-based; conditions: absence (w/o) of Zn^2+; read-out: EC50
ASSAY READOUT: pEC50
In simple prose, pEC50 is minus the logarithm base ten of a concentration in moles per litre.

In: Using the record for N#Cc1ccc(OCCn2ccnc2)c(OCCn2ccnc2)c1 , report its pEC50.
Out: 5.29

In: Using the record for Cc1nc(-c2nc3c(c(=O)[nH]2)CN(C(=O)c2cccc(Cl)c2F)CC3)cs1 , report its pEC50.
Out: 5.13

---

Biological target: rGPR39 (Rattus norvegicus, UniProt A0A8J8Y1V6)
Sequence (A0A8J8Y1V6 1-456): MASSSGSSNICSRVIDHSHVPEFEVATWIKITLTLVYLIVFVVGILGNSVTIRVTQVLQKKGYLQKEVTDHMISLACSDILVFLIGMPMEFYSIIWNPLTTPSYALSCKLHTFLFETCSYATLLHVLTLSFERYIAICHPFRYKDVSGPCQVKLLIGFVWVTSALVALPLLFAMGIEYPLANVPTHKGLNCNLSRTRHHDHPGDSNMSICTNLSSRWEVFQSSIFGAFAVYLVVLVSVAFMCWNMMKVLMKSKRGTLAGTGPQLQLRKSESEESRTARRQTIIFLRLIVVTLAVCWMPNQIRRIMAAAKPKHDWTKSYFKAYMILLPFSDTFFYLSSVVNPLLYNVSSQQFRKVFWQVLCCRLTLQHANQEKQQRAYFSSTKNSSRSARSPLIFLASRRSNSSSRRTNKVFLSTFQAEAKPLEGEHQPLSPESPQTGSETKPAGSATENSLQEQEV
Assay: DMR label-free assay, HEK293s cells transfected with rat GPR39
Type: cell-based
Conditions: presence of 5 μM Zn^2+; read-out: EC50
I'd appreciate it if you could supply EC50 values for the items below.
The reply should be a number in nM, with the unit left off.

In: What is its EC50 for rGPR39 (Rattus norvegicus, UniProt A0A8J8Y1V6)? Entry: Cc1nc(-c2nc3c(c(=O)[nH]2)CN(C(=O)c2cccc(Cl)c2F)CC3)cs1 [AZ7914]
Out: 150

In: What is its EC50 for rGPR39 (Rattus norvegicus, UniProt A0A8J8Y1V6)? Entry: Cc1nc2c(C(=O)O)cnn2c(O)c1Cc1ccc(Cl)cc1 [AZ4237]
Out: 150

In: What is its EC50 for rGPR39 (Rattus norvegicus, UniProt A0A8J8Y1V6)? Entry: N#Cc1ccc(OCCn2ccnc2)c(OCCn2ccnc2)c1 [AZ1395]
Out: 33

---

I'd appreciate it if you could supply EC50 values for the items below.
target: GPR39 (Homo sapiens); experiment: DMR positive allosteric modulator (PAM) experiments, compound and Zn^2+ interdependencies; assay type: cell-based; set-up: Full length human (AF034633), rat (DM091294) and mouse (BC085285) GPR39; expressed in transfected cells; conditions: [Zn2+] μM: 5e-6
The reply should be a number in µM, with the unit left off.

In: What is its EC50 for GPR39 (Homo sapiens)? Entry: N#Cc1ccc(OCCn2ccnc2)c(OCCn2ccnc2)c1 [AZ1395]
Out: 0.057

In: What is its EC50 for GPR39 (Homo sapiens)? Entry: Cc1nc2c(C(=O)O)cnn2c(O)c1Cc1ccc(Cl)cc1 [AZ4237]
Out: 0.058

In: What is its EC50 for GPR39 (Homo sapiens)? Entry: Cc1nc(-c2nc3c(c(=O)[nH]2)CN(C(=O)c2cccc(Cl)c2F)CC3)cs1 [AZ7914]
Out: 0.29

---

I'd appreciate it if you could supply EC50 values for the items below.
Biological target: GPR39 (NIT-1 cells) (Mus musculus, UniProt Q5U431)
Construct: NIT-1 cells endogenously expressing GPR39; endogenous in cells; host or cells: NIT-1 (ATCC CRL-2055)
Sequence (Q5U431 1-456): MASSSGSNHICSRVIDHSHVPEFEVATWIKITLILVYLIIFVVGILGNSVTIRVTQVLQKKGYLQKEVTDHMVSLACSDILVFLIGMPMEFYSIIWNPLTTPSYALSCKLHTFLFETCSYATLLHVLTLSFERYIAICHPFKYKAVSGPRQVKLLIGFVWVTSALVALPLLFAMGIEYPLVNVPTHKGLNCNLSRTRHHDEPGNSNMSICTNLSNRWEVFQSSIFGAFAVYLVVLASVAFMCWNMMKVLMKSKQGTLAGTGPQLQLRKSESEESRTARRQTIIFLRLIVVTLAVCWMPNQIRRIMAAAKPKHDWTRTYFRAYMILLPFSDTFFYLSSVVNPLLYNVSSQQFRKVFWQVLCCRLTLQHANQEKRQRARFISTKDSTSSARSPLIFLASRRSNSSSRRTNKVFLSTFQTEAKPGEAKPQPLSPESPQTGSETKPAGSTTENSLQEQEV
Experiment: IP1 assay in NIT-1 cells endogenously expressing GPR39
Format: cell-based
Settings: absence (w/o) of Zn^2+; read-out: EC50

In: Using the record for Cc1nc(-c2nc3c(c(=O)[nH]2)CN(C(=O)c2cccc(Cl)c2F)CC3)cs1 , report its EC50.
Out: > 33 µM

In: Using the record for Cc1nc2c(C(=O)O)cnn2c(O)c1Cc1ccc(Cl)cc1 , report its EC50.
Out: > 33 µM

In: Using the record for N#Cc1ccc(OCCn2ccnc2)c(OCCn2ccnc2)c1 , report its EC50.
Out: > 33 µM

---

Biological target: UniProt O43194
Sequence (O43194 1-453): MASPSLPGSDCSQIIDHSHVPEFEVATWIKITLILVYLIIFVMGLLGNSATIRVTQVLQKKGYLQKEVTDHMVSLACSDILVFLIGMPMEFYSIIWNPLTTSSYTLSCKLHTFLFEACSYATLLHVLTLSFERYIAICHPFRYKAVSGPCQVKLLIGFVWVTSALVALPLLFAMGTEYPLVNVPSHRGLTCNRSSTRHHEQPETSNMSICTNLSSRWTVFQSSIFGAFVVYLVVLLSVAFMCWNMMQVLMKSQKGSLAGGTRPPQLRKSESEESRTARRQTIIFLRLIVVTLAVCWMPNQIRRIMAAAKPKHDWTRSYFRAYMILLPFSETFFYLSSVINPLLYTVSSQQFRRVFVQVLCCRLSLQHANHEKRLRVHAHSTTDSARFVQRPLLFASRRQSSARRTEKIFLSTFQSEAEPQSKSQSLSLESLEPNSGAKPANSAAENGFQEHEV
Assay: Dynamic mass redistribution (DMR) label-free assay, HEK293s-hGPR39 cells
Format: cell-based
Design: Full length human (AF034633), rat (DM091294) and mouse (BC085285) GPR39; expressed in transfected cells; host or cells: HEK293s (ATCC CRL-1573), pIRESneo3 vector, selected clones
Settings: Zn^2+ by itself; read-out: EC50
ASSAY READOUT: EC50 (µM)
The reply should be a number in µM, with the unit left off.

In: Using the record for [Zn+2] , report its EC50.
Out: 13

---

Target: GPR39 (Homo sapiens, UniProt O43194)
Sequence (O43194 1-453): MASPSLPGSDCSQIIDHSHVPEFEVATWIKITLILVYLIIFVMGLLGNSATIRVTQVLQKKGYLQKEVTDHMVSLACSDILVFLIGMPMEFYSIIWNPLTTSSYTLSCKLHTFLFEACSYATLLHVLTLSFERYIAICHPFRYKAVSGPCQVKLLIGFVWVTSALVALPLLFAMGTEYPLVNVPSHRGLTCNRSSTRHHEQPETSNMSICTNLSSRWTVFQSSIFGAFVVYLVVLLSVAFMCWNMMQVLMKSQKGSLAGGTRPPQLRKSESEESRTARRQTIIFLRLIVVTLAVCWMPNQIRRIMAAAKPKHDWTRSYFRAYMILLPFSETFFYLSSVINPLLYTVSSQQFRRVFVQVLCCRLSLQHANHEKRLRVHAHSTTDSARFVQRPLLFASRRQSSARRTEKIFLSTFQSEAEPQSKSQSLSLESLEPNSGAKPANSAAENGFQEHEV
Test: DMR positive allosteric modulator (PAM) experiments, compound and Zn^2+ interdependencies
Assay type: cell-based
Parameters: Full length human (AF034633), rat (DM091294) and mouse (BC085285) GPR39; expressed in transfected cells
Settings: [Zn2+] μM: 3
ASSAY READOUT: EC50
Entry format: amount then unit.

In: Using the record for N#Cc1ccc(OCCn2ccnc2)c(OCCn2ccnc2)c1 [AZ1395] , report its EC50.
Out: 0.16 µM

In: Using the record for Cc1nc2c(C(=O)O)cnn2c(O)c1Cc1ccc(Cl)cc1 [AZ4237] , report its EC50.
Out: 0.58 µM

In: Using the record for Cc1nc(-c2nc3c(c(=O)[nH]2)CN(C(=O)c2cccc(Cl)c2F)CC3)cs1 [AZ7914] , report its EC50.
Out: 1.6 µM

---

molecular target: GPR39 (Homo sapiens); experiment: Dynamic mass redistribution (DMR) label-free assay, HEK293s-hGPR39 cells; type: cell-based; parameters: Full length human (AF034633), rat (DM091294) and mouse (BC085285) GPR39; expressed in transfected cells; host or cells: HEK293s (ATCC CRL-1573), pIRESneo3 vector, selected clones; details: absence (w/o) of Zn^2+; read-out: EC50
pEC50: −log10 of the molar value.
ASSAY READOUT: pEC50

In: Using the record for Cc1nc2c(C(=O)O)cnn2c(O)c1Cc1ccc(Cl)cc1 , report its pEC50.
Out: < 4.48

In: Using the record for Cc1nc(-c2nc3c(c(=O)[nH]2)CN(C(=O)c2cccc(Cl)c2F)CC3)cs1 , report its pEC50.
Out: < 4.48

Origin of values: paper PMC4697807
